- Tested on: IGROV1 ovarian
- TEST_NAME: NCI-60 one-dose screen, 48 h
- REPORTED_CONDITIONS: 10 µM unless noted
- Method: Growth inhibition of the IGROV1 human tumor cell line is measured as a screen for anti-cancer activity. Cells are grown in 96 well plates and exposed to the test compound for 48 hours. Compounds are tested at a single concentration, which is 10^-5 M for most compounds. The reported endpoint is percent growth (GI% or GIPRCNT), where numbers from 0 - 100% represent growth inhibition, and numbers from -100% - 0 represent cell death. For example, a value of 40 represents 60% growth inhibition. […]
About 83,000 compounds went through this panel and 20% of them were active in at least one assay; those are over-represented in the sample as a whole. Active and inactive are the calls of the source. Rule for the calls: active = growth percent below 10; inactive = the rest.
Returns: one label drawn from 1.0 (active), 0.0 (inactive)

A selection of reference data follows.
>  <MOLECULE>
O=C(OCc1ccc2cccc(O)c2n1)N1CCN(C(=O)c2cc3cc(F)ccc3[nH]2)CC1

>  <TEST_TARGET>
IGROV1 ovarian

>  <DISCRETE_LABEL>
1.0

$$$$
>  <MOLECULE>
O=C(c1ccc(Cl)cc1)N1CCN(c2ccnc3cc(Cl)ccc23)CC1

>  <TEST_TARGET>
IGROV1 ovarian

>  <DISCRETE_LABEL>
0.0

$$$$
>  <MOLECULE>
O=[N+]([O-])/C(=C/C=C/c1ccccc1)c1ccccc1

>  <TEST_TARGET>
IGROV1 ovarian

>  <DISCRETE_LABEL>
1.0

$$$$

QUERY: How did this test come out for CCOC(=O)c1cnc2ccccc2c1Cl ?
RESULT: 0.0

QUERY: Quick one: N#CC1=C(c2ccc(Cl)cc2)Nc2c(c(-c3ccc(Cl)cc3)nn2-c2ccccc2)C12C(=O)Nc1ccc(Cl)cc12 (configuration not stated)
RESULT: 0.0

QUERY: What about this molecule? O=Nc1c(-c2c(O)[nH]c3ncccc23)[nH]c2ccccc12
RESULT: 1.0

QUERY: Now the molecule O=[N+]([O-])c1ccc(S(=O)(=O)N2CCN(C3=NS(=O)(=O)c4ccccc4N3c3ccccc3)CC2)cc1
RESULT: 0.0

QUERY: Same question, Cn1c(-c2ccc(Br)cc2)c(O)c(=O)c2c(F)cccc21 this time
RESULT: 0.0

QUERY: Next up: O=C1/C(=C/c2ccc(F)cc2)COc2ccc(O)c(O)c21
RESULT: 1.0

QUERY: Next up: Cc1noc(C)c1C(=O)OCc1coc2ccccc2c1=O
RESULT: 0.0

QUERY: Input CN1C(=O)/C(=C/c2cn(-c3ccccc3)nc2-c2ccccc2)SC1=S
RESULT: 0.0

QUERY: And for O=C(NCCCN1CCOCC1)c1cccc(N2C(=O)/C(=C/c3ccc(F)cc3)SC2=S)c1 ?
RESULT: 0.0

Reference source for all entries: PubChem BioAssay (NCI)
